For each record, write down the corresponding EC50.
Biological target: UniProt P11229
Sequence (P11229 whole entry): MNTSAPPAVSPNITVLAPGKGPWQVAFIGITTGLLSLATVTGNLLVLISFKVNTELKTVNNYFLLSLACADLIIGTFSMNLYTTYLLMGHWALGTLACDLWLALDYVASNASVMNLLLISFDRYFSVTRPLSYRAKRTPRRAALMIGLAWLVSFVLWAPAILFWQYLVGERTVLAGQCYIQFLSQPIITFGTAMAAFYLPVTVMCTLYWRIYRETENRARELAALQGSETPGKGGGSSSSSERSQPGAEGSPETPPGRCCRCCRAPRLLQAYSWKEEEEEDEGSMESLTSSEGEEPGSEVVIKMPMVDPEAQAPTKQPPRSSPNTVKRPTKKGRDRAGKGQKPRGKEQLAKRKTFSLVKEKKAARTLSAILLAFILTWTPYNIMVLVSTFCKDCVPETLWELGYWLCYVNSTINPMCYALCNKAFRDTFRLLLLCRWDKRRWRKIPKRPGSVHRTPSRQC
Assay: Effective concentration required for stimulation of phosphoinositol (PI) hydrolysis in the A9 L cell line transfected with the Muscarinic acetylcholine receptor M1.
Your answer is read as µM, so omit the unit and give the number.

Incoming: For CCCCOc1nsnc1OC1CN2CCC1CC2 (stereo not drawn) , what is its reported EC50?
Outgoing: 0.102

Incoming: For CCCSc1nsnc1OC1CN2CCC1CC2 (stereo not drawn) , what is its reported EC50?
Outgoing: 0.431

Incoming: For CCCCCSc1nsnc1OC1CN2CCC1CC2 (stereo in doubt; 18g) , what is its reported EC50?
Outgoing: 0.136

Incoming: For CCCCCSc1nsnc1OC1CN2CCC1CC2 (stereo in doubt; 18e) , what is its reported EC50?
Outgoing: 0.433

Incoming: For CCCCOc1nsnc1OC1CCNC1 (stereo not drawn) , what is its reported EC50?
Outgoing: 4.87

Incoming: For CCCCOc1nsnc1OC1CNC1 , what is its reported EC50?
Outgoing: 6.2

Incoming: For CCCSc1nsnc1OC1CN2CCC1C2 (stereo in doubt; 32) , what is its reported EC50?
Outgoing: 0.162

Incoming: For CCCSc1nsnc1OC1CN2CCC1C2 (stereo in doubt; 26) , what is its reported EC50?
Outgoing: 0.0019

Incoming: For CCCCSc1nsnc1OC1CN2CCC1CC2 (stereo not drawn) , what is its reported EC50?
Outgoing: 0.0223

Incoming: For CCCSc1nsnc1OC1CN2CCCC1C2 (stereo in doubt; 28) , what is its reported EC50?
Outgoing: 0.001

Incoming: For CCCCCCOc1nsnc1OC1CN2CCC1CC2 (stereo not drawn) , what is its reported EC50?
Outgoing: 0.259

Incoming: For CCCCCOc1nsnc1OC1CN2CCC1CC2 (stereo not drawn) , what is its reported EC50?
Outgoing: 0.165

Incoming: For CCCCCCSc1nsnc1OC1CN2CCC1CC2 (stereo not drawn) , what is its reported EC50?
Outgoing: 0.225

Attribution: ChEMBL document CHEMBL1131461
